test.system: HCV polymerase S282T (Hepatitis C virus genotype 1b, UniProt Q9WMX2, S2701T)
Construct: approximately 65 kDa HCV genotype 1b NS5B protein were used to generate recombinant HCV polymerases (with a deletion of the 21 carboxy terminal amino acids)
protocol.text: HCV polymerase enzyme assay, S282T
pIC50: −log10 of the molar value.
assay.readout: pIC50

The observed pIC50 for `C[C@@]1(F)[C@H](O)[C@@H](COP(=O)(O)OP(=O)(O)OP(=O)(O)O)O[C@H]1n1cc(F)c(=O)[nH]c1=O` when tested with HCV polymerase S282T (Hepatitis C virus genotype 1b, UniProt Q9WMX2, S2701T) stands at 5.00 to 6.00

====

test.system: wild-type HCV genotype 1b NS5B polymerase (Hepatitis C virus genotype 1b, UniProt Q9WMX2)
Construct: approximately 65 kDa HCV genotype 1b NS5B protein were used to generate recombinant HCV polymerases (with a deletion of the 21 carboxy terminal amino acids); made in house
protocol.text: HCV polymerase enzyme assay, wild-type
Assay type: biochemical
pIC50: −log10 of the molar value.
Would you mind telling me the reported pIC50 of each entry?

Record `C[C@@]1(O)[C@H](O)[C@@H](COP(=O)(O)OP(=O)(O)OP(=O)(O)O)O[C@H]1n1cc(F)c(N)nc1=O` . Reported pIC50: > 6.60

pIC50 recorded for this compound, `C[C@@]1(Cl)[C@H](O)[C@@H](COP(=O)(O)OP(=O)(O)OP(=O)(O)O)O[C@H]1n1cc(F)c(=O)[nH]c1=O` , is 6.00 to 6.60

Recorded pIC50 (compound `C[C@@]1(F)[C@H](O)[C@@H](COP(=O)(O)OP(=O)(O)OP(=O)(O)O)O[C@H]1n1cc(F)c(=O)[nH]c1=O` ): > 6.60

In plain terms, `C[C@@]1(Cl)[C@H](O)[C@@H](COP(=O)(O)OP(=O)(O)OP(=O)(O)O)O[C@H]1n1cc(F)c(N)nc1=O` has a documented pIC50 of 6.00 to 6.60

Origin of measurements: patent US10238680B2
